Where these numbers come from: paper PMC4251658

- test system: PCP hydroxylase (Sphingobium chlorophenolicum, UniProt P42535)
- Sequence (P42535 whole entry): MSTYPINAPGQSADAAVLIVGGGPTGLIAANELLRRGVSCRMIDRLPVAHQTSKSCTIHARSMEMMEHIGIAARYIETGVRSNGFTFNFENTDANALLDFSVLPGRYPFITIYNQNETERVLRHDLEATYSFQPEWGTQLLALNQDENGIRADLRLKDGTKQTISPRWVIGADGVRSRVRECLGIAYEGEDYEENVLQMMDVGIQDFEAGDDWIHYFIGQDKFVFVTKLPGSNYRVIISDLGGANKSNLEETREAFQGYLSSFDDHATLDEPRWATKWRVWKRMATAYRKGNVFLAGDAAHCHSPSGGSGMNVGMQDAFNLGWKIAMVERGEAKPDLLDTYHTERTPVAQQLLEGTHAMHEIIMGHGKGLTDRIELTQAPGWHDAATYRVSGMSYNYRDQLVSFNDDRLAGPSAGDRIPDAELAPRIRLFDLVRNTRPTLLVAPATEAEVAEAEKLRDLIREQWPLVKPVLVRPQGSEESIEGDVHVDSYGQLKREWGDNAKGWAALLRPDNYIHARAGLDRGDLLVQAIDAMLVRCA
- Format: biochemical
- particulars: 100 μM substrate, 160 μM NADPH

>  <compound>
Oc1cc(Cl)cc(Cl)c1 [3,5-DCP, 3,5-dichlorophenol]

>  <extent of uncoupling (in words)>
complete uncoupling

$$$$
>  <compound>
Oc1cc(Cl)c(Cl)c(Cl)c1 [3,4,5-triCP, 3,4,5-trichlorophenol]

>  <extent of uncoupling (in words)>
complete uncoupling

$$$$
>  <compound>
Oc1ccc(Cl)c(Cl)c1 [3,4-DCP]

>  <extent of uncoupling (in words)>
complete uncoupling

$$$$

* * *

- test system: PCP hydroxylase (Sphingobium chlorophenolicum)
- Assay type: biochemical
- particulars: 100 μM substrate, 160 μM NADPH
Assign Product appearance to each entry below.
Numbers only, in s⁻¹.

>  <compound>
Oc1c(Cl)c(Cl)cc(Cl)c1Cl [TCP, 2,3,5,6-tetrachlorophenol]

>  <Product appearance / s⁻¹>
0.076

$$$$

# input for lookup
Query Product appearance on PCP hydroxylase (Sphingobium chlorophenolicum) for Oc1c(Cl)cccc1Cl [2,6-DCP, 2,6-dichlorophenol]
0.060
